The reader will find reported koff values listed item by item below.
- systemName: T1, human TfR ectodomain fused to a mouse IgG1 Fc fragment (human, UniProt P02786 89-760)
- T1 construct: extracellular domain; ectodomain fused to the N-terminal end of the Fc, made in-house; not shown: mouse IgG1 Fc fragment
- T1 sequence (P02786 89-760): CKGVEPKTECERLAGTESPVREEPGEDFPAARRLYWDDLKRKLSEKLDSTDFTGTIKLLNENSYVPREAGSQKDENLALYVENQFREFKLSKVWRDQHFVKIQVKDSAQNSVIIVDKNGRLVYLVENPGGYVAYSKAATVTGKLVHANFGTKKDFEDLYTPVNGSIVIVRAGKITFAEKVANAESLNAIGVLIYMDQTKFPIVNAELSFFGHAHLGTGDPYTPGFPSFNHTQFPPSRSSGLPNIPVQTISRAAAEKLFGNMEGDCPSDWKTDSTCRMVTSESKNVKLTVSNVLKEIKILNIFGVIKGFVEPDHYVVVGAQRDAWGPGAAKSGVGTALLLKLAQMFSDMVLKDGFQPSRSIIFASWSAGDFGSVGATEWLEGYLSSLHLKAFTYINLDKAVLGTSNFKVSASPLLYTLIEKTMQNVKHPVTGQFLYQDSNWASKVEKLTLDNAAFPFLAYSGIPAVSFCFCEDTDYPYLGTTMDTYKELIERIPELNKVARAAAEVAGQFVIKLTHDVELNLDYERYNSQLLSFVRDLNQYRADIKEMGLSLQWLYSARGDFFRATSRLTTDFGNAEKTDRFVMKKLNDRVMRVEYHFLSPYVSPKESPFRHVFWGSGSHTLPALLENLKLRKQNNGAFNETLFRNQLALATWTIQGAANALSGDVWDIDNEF
- protocolSummary: SPR, kinetic
The response must be a number in s⁻¹ with no trailing unit.

{"binder": "VHH A8 (C5^V8) (VHH) VHH: EVQLVESGGGVVQPGGSLKLSCVASGTDFSINFIRWYRQAPGKQREFVAGFTATGNTNYADSMKGRFTISRDNTKNAVYLQIDSLKPEDTAVYYCYMLAKWGQGTQVTVSS", "units": "s⁻¹", "reportedResult": 0.0558}

Turning now to a further binder:
Quick one: koff for B8^V35 (VHH) VHH: EVQLVESGGGVVQPGGSLRLSCAASGEIRSINFMRWYRQAPGKQREWVAGFTRDGSLNYPDSAKGRFTISRDNAKNTVYLQIDSLKPEDTAVYYCYMLDTWGKGTQVTVSS ? 0.0143
